IC50 values, listed per item
- measuredTarget: JAK1 (Homo sapiens (Human))
- Sequence (P23458 whole entry): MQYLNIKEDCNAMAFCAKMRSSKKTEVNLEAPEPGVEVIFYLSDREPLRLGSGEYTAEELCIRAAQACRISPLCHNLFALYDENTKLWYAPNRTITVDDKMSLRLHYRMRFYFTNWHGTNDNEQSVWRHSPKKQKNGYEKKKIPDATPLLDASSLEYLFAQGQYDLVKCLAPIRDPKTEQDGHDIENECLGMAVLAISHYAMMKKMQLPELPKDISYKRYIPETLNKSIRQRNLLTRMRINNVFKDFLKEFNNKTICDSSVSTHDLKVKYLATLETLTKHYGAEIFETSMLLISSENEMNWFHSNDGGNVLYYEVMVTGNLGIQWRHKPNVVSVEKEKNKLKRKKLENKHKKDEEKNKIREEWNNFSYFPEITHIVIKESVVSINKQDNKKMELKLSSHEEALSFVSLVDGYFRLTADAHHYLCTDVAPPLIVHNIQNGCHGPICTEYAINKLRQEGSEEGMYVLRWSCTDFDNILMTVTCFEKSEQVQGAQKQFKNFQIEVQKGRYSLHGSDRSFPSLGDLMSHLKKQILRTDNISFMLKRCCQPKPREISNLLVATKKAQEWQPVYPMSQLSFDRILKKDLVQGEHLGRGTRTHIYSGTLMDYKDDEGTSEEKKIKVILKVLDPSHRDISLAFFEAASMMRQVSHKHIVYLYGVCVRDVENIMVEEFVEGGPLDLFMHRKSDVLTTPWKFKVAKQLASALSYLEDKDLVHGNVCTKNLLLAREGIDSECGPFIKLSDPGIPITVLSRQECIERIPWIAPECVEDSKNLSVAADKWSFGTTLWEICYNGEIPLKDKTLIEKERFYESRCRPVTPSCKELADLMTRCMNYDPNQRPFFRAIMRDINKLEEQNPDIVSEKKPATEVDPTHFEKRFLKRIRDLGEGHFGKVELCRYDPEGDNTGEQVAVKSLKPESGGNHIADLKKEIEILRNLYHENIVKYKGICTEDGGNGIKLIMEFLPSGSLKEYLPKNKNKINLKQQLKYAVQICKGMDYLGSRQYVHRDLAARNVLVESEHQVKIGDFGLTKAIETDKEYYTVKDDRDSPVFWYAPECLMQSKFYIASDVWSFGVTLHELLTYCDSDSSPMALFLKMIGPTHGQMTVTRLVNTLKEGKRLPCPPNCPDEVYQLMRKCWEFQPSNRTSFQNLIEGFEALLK
- assayProcedure: Analysis of JAK1 activity inhibition ability (ADP-Glo Kinase Assay)
- Type: biochemical
- testContext: JAK1 enzyme, ADP-Glo luminescence, ATP 250 uM, IRS-itide substrate, 30° C. 40 minutes; read-out: IC50
measuredEndpoint: IC50

compound | measuredTarget | dataValue
N#CCC(=O)N1CCN(c2cc(NC(=O)C3CC3)nc3[nH]ccc23)CC1 | JAK1 (Homo sapiens (Human)) | > 200 nM
Cc1c(NC(=O)C2CC2)nc2[nH]ccc2c1C1=CCN(C(=O)CC#N)CC1 | JAK1 (Homo sapiens (Human)) | > 200 nM
Cc1cc(NS(=O)(=O)CCCC(F)(F)F)ccc1-c1cc(NC(=O)C2CC2)nc2[nH]ccc12 | JAK1 (Homo sapiens (Human)) | < 20 nM
O=C(Nc1cc(C2=CCN(C(=O)c3ccc(F)cc3)CC2)c2cc[nH]c2n1)C1CC1 | JAK1 (Homo sapiens (Human)) | 20 to 200 nM
N#CCC1(CS(=O)(=O)Nc2cc(F)c(-c3cc(NC(=O)C4CC4)nc4[nH]ccc34)cc2F)CC1 | JAK1 (Homo sapiens (Human)) | < 20 nM
CCS(=O)(=O)Nc1ccc(-c2cc(NC(=S)C3CC3)nc3[nH]ccc23)cc1 | JAK1 (Homo sapiens (Human)) | 20 to 200 nM
CC1(C)CN(C(=O)CCC#N)CC=C1c1cc(NC(=O)C2CC2)nc2[nH]ccc12 | JAK1 (Homo sapiens (Human)) | 20 to 200 nM
C[C@@H]1CN(C(=O)C2(C#N)CCOCC2)CC=C1c1cc(NC(=O)C2CC2)nc2[nH]ccc12 | JAK1 (Homo sapiens (Human)) | 20 to 200 nM
CC1CN(C(=O)c2cccc(Br)c2)CC=C1c1cc(NC(=O)C2CC2)nc2[nH]ccc12 (centres unmarked) | JAK1 (Homo sapiens (Human)) | 20 to 200 nM
CCc1cc(NS(=O)(=O)C2CC2)ccc1-c1cc(NC(=O)C2CC2)nc2[nH]ccc12 | JAK1 (Homo sapiens (Human)) | < 20 nM
CS(=O)(=O)N1CCC(n2cc(-c3cc(NC(=O)C4CC4)nc4[nH]ccc34)cn2)CC1 | JAK1 (Homo sapiens (Human)) | 20 to 200 nM
N#CC1(CS(=O)(=O)N2CC=C(c3cc(NC(=O)C4CC4)nc4[nH]ccc34)C2)CC1 | JAK1 (Homo sapiens (Human)) | > 200 nM
O=C(Nc1cc(-c2ccc(CC(=O)N3CCN(S(=O)(=O)NCC(F)(F)F)CC3)cc2)c2cc[nH]c2n1)C1CC1 | JAK1 (Homo sapiens (Human)) | > 200 nM
CCS(=O)(=O)Nc1ccc(-c2cc(NC(=O)C3CC3)nc3c2ccn3CC#N)cc1F | JAK1 (Homo sapiens (Human)) | > 200 nM
N#CCCCC(=O)N1CC=C(c2cc(NC(=O)C3CC3)nc3[nH]ccc23)CC1 | JAK1 (Homo sapiens (Human)) | < 20 nM
C[C@H]1C=C(c2cc(NC(=O)C3CC3)nc3[nH]ccc23)CCN1C(=O)CC#N | JAK1 (Homo sapiens (Human)) | < 20 nM
N#CCC(=O)N1C2CC1CN(c1cc(NC(=O)C3CC3)nc3[nH]ccc13)C2 | JAK1 (Homo sapiens (Human)) | > 200 nM
CCS(=O)(=O)Nc1ccc(-c2cc(NC(=O)C3CC3)nc3[nH]ccc23)c(C(=O)OC)c1 | JAK1 (Homo sapiens (Human)) | > 200 nM
COC(=O)C(C)C(=O)N1CC=C(c2cc(NC(=O)C3CC3)nc3[nH]ccc23)C(C)C1 (centres unmarked) | JAK1 (Homo sapiens (Human)) | > 200 nM
O=C(Nc1cc(C2=CC3CCCC(C2)N3C(=O)c2ccnc(Cl)c2)c2cc[nH]c2n1)C1CC1 (centres unmarked) | JAK1 (Homo sapiens (Human)) | 20 to 200 nM
O=C(Nc1cc(C2=CCN(CCN3CCOCC3)C2)c2cc[nH]c2n1)C1CC1 | JAK1 (Homo sapiens (Human)) | > 200 nM
CCC(CC)S(=O)(=O)Nc1ccc(-c2cc(NC(=O)C3CC3)nc3[nH]ccc23)cc1 | JAK1 (Homo sapiens (Human)) | < 20 nM
CC(C)=C(C#N)C(=O)N1CC=C(c2cc(NC(=O)C3CC3)nc3[nH]ccc23)[C@H](C)C1 | JAK1 (Homo sapiens (Human)) | 20 to 200 nM
CCCS(=O)(=O)Nc1ccc(-c2cc(NC(=O)C3CC3)nc3[nH]ccc23)c(C)c1C | JAK1 (Homo sapiens (Human)) | 20 to 200 nM
CN(C)c1nc(-c2ccc(NS(=O)(=O)c3ccc(F)c(F)c3)cc2)c2cc[nH]c2n1 | JAK1 (Homo sapiens (Human)) | > 200 nM
CCS(=O)(=O)N1CCN(C(=O)Cc2ccc(-c3cc(NC(=O)C4CC4)nc4[nH]ccc34)cc2)CC1 | JAK1 (Homo sapiens (Human)) | 20 to 200 nM
CC1CN(C(=O)n2ccnc2)CC=C1c1cc(NC(=O)C2CC2)nc2[nH]ccc12 (centres unmarked) | JAK1 (Homo sapiens (Human)) | < 20 nM
CC1CC(c2cc(NC(=O)C3CC3)nc3[nH]ccc23)=CCN1C(=O)CC#N (centres unmarked) | JAK1 (Homo sapiens (Human)) | < 20 nM
CC1CN(C(=O)CCCC#N)CC=C1c1cc(NC(=O)C2CC2)nc2[nH]ccc12 (centres unmarked) | JAK1 (Homo sapiens (Human)) | 20 to 200 nM
CC1CN(C(=O)c2ccncc2Cl)CC=C1c1cc(NC(=O)C2CC2)nc2[nH]ccc12 (centres unmarked) | JAK1 (Homo sapiens (Human)) | 20 to 200 nM
CC1CN(C(=O)/C=C/CCBr)CC=C1c1cc(NC(=O)C2CC2)nc2[nH]ccc12 (centres unmarked) | JAK1 (Homo sapiens (Human)) | 20 to 200 nM
N#CCCCS(=O)(=O)Nc1ccc(-c2nc(NC(=O)C3CC3)nc3[nH]cnc23)cc1 | JAK1 (Homo sapiens (Human)) | > 200 nM

----------
- measuredTarget: JAK1 (Homo sapiens (Human))
- assayProcedure: Analysis of JAK1 activity inhibition ability (ADP-Glo Kinase Assay)
- Format: biochemical
- testContext: JAK1 enzyme, ADP-Glo luminescence, ATP 250 uM, IRS-itide substrate, 30° C. 40 minutes; read-out: IC50
Measured IC50 of individual entries

molecule | IC50
CCCS(=O)(=O)Nc1ccc(-c2nc(NC(=O)C3CC3)nc3[nH]ccc23)cc1 [Example 190] | < 20 nM
CCS(=O)(=O)Nc1ccc(-c2cc(NCC3CC3)nc3[nH]ccc23)cc1F [Example 713] | > 200 nM
CCS(=O)(=O)N1CC(CC#N)(N2CCN(c3cc(NC(=O)C4CC4)nc4[nH]ccc34)CC2)C1 [Example 700] | > 200 nM
N#CCCC(=O)N1CCC=C(c2cc(NC(=O)C3CC3)nc3[nH]ccc23)C1 [Example 421] | 20 to 200 nM
N#CCCCS(=O)(=O)N1CC(CC#N)(N2CC=C(c3cc(NC(=O)C4CC4)nc4[nH]ccc34)CC2)C1 [Example 618] | < 20 nM
C[C@H]1CC(Nc2ccc(-c3cc(NC(=O)C4CC4)nc4[nH]ccc34)cc2)CCN1C(=O)c1ccnc(F)c1 (some centres unmarked) [Example 503] | > 200 nM
O=C(Nc1cc(N2CCN(CC(=O)N3CCS(=O)(=O)CC3)CC2)c2cc[nH]c2n1)C1CC1 [Example 702] | > 200 nM
N#CCCCS(=O)(=O)Nc1ccc(-c2nc(NC(=O)C3CC3)nc3[nH]ccc23)cc1F [Example 204] | 20 to 200 nM

----------
- measuredTarget: UniProt P23458
- assayProcedure: Analysis of JAK1 activity inhibition ability (ADP-Glo Kinase Assay)
- Type: biochemical
- testContext: JAK1 enzyme, ADP-Glo luminescence, ATP 250 uM, IRS-itide substrate, 30° C. 40 minutes; read-out: IC50
measuredEndpoint: IC50

compound | measuredEndpoint | dataValue
Cc1nc(C)c(C(=O)N2CC=C(c3cc(NC(=O)C4CC4)nc4[nH]ccc34)C(C)C2)s1 (stereo not shown) | IC50 | > 200 nM
CC1CN(C(=O)c2ccc(S(C)(=O)=O)cc2)CC=C1c1cc(NC(=O)C2CC2)nc2[nH]ccc12 (stereo not shown) | IC50 | 20 to 200 nM
CCCS(=O)(=O)Nc1ccc(-c2nc(NC(=O)C3CC3)nc3[nH]ccc23)cc1F | IC50 | 20 to 200 nM
CCS(=O)(=O)N1CC(CC#N)(N2CC=C(c3cc(NC(=O)C4CC4)nc4[nH]ccc34)[C@H](C)C2)C1 | IC50 | < 20 nM
O=C(Nc1cc(C2=CCN(C(=O)NCC(F)(F)F)CC2)c2cc[nH]c2n1)C1CC1 | IC50 | < 20 nM
O=C(Nc1cc(N2CCN(S(=O)(=O)CCCF)CC2)c2cc[nH]c2n1)C1CC1 | IC50 | > 200 nM
CC(C)CS(=O)(=O)Nc1ccc(-c2cc(NC(=O)C3CC3)nc3[nH]ccc23)cc1 | IC50 | < 20 nM
CCC1CC(c2cc(NC(=O)C3CC3)nc3[nH]ccc23)=CCN1C(=O)CC#N (stereo not shown) [Example 413] | IC50 | < 20 nM
C=CCS(=O)(=O)N[C@H]1CCN(c2nc(NC(=O)C3CC3)nc3[nH]ccc23)C1 | IC50 | > 200 nM
O=C(Nc1nc(-c2ccc(NS(=O)(=O)c3cccc(F)c3)cc2)c2cc[nH]c2n1)C1CC1 | IC50 | < 20 nM
N#CCC(=O)N1CC=C(c2cc(NC(=O)c3ccco3)nc3[nH]ccc23)CC1 | IC50 | > 200 nM
CCCCNC(=O)N1CC=C(c2cc(NC(=O)C3CC3)nc3[nH]ccc23)CC1 | IC50 | 20 to 200 nM
O=C(Nc1cc(-c2ccc(NS(=O)(=O)N3CCOCC3)c(F)c2)c2cc[nH]c2n1)C1CC1 | IC50 | < 20 nM
CC(=O)N1CCN(C(=O)Cc2ccc(-c3cc(NC(=O)C4CC4)nc4[nH]ccc34)cc2)CC1 | IC50 | > 200 nM
CC[C@@H]1C=C(c2cc(NC(=O)C3CC3)nc3[nH]ccc23)CCN1C(=O)CC#N | IC50 | < 20 nM
N#Cc1cc(NS(=O)(=O)c2ccc(F)c(F)c2)ccc1-c1cc(NC(=O)C2CC2)nc2[nH]ccc12 | IC50 | > 200 nM

Origin of measurements: patent US11524968B2
